- TESTED_ON: UniProt P50406
- ASSAY_PROCEDURE: Inhibitory activity against 5-hydroxytryptamine 6 receptor in human
pIC50: −log10 of the molar value.
# pIC50 per record follows

# ENTRY_SMILES, pIC50
data = [
    ("CCc1[nH]c2ccc(OC)cc2c1CCN(C)C", 7.07),
    ("COc1ccc2[nH]c(C)c(C3=CCNCC3)c2c1", 7.10),
]

* * *

# pIC50 per record follows
- TESTED_ON: 5-hydroxytryptamine receptor 6 (Homo sapiens)
- Sequence (P50406 whole entry): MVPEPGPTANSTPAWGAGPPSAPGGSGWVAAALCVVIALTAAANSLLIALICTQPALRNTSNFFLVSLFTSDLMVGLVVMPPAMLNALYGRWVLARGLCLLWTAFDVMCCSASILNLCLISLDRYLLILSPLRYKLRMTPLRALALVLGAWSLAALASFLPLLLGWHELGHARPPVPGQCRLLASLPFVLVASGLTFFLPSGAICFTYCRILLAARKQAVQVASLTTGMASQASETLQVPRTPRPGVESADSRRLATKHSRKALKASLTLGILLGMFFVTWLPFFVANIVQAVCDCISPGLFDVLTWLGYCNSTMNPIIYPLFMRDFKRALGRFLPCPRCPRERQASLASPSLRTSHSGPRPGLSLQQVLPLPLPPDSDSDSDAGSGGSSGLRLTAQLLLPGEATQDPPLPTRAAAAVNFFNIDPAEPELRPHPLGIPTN
- ASSAY_PROCEDURE: Displacement of [3H]LSD binding to cloned human 5-hydroxytryptamine 6 receptor expressed in HEK cells
- Type: cell-based, HEK293
pIC50: −log10 of the molar value.

# MOLECULE, pIC50
records = [
    ("CC(C)c1[nH]c2ccc(Cl)cc2c1C1=CCNCC1", 7.00),
    ("COc1ccc2[nH]c(C)c(C3=CCNCC3)c2c1", 7.10),
    ("COc1ccc2[nH]cc(C3=CCNCC3)c2c1 [RU-24969]", 7.10),
    ("CCCN1CC=C(c2c(C)[nH]c3ccc(Cl)cc23)CC1", 7.22),
    ("Cc1[nH]c2ccc(Cl)cc2c1CCN(C)C", 7.40),
    ("Cc1[nH]c2ccc(Cl)cc2c1C1=CCN(C)CC1", 8.00),
    ("Cc1[nH]c2ccc(Cl)cc2c1C1=CC2CCC(C1)N2C (centres undefined)", 7.40),
    ("CCc1[nH]c2ccc(Cl)cc2c1C1=CCNCC1", 7.52),
    ("CCN1CC=C(c2c(C)[nH]c3ccc(Cl)cc23)CC1", 7.52),
    ("C1=C(c2c(-c3ccccc3)[nH]c3ccccc23)CCNC1", 8.70),
    ("CCc1[nH]c2ccc(Cl)cc2c1C1=CCN(CC)CC1", 7.15),
    ("CCCCN1CC=C(c2c(C)[nH]c3ccc(Cl)cc23)CC1", 7.30),
    ("CCCc1[nH]c2ccc(Cl)cc2c1C1=CCNCC1", 7.40),
    ("Cc1[nH]c2ccc(Cl)cc2c1C1=CCN(Cc2ccccc2)CC1", 6.22),
]

* * *

Recorded below: IC50, system UniProt:P19327.
Sequence (P19327 whole entry): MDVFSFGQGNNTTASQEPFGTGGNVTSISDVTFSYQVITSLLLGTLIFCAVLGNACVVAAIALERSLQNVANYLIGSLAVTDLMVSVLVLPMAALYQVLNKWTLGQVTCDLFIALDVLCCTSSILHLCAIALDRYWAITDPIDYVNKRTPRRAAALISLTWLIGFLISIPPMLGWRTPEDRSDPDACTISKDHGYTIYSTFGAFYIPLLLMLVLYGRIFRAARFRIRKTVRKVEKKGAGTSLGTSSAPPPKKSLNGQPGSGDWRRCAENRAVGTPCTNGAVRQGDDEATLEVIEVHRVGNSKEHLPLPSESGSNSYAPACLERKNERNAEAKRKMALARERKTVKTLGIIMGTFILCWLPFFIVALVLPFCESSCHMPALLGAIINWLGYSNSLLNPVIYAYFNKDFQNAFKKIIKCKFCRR

# ENTRY_SMILES, UNIT_ABBREV, VALUE_COMPARATOR, IC50
records = [
    ("CCc1[nH]c2ccc(OC)cc2c1CCN(C)C", "nM", ">", 1000),
    ("Cc1[nH]c2ccc(Cl)cc2c1C1=CCNCC1", "nM", "=", 660),
    ("COc1ccc2[nH]c(C)c(C3=CCNCC3)c2c1", "nM", "=", 430),
]

* * *

- TESTED_ON: 5-hydroxytryptamine receptor 6 (Homo sapiens)
- ASSAY_PROCEDURE: Displacement of [3H]LSD binding to cloned human 5-hydroxytryptamine 6 receptor stably expressed in HEK cells
- Type: cell-based, HEK293

# ENTRY_SMILES, IC50 / µM
records = [
    ("CCc1[nH]c2ccc(OC)cc2c1CCN(C)C", 0.085),
]

* * *

- TESTED_ON: UniProtKB P34969
- Sequence (P34969 whole entry): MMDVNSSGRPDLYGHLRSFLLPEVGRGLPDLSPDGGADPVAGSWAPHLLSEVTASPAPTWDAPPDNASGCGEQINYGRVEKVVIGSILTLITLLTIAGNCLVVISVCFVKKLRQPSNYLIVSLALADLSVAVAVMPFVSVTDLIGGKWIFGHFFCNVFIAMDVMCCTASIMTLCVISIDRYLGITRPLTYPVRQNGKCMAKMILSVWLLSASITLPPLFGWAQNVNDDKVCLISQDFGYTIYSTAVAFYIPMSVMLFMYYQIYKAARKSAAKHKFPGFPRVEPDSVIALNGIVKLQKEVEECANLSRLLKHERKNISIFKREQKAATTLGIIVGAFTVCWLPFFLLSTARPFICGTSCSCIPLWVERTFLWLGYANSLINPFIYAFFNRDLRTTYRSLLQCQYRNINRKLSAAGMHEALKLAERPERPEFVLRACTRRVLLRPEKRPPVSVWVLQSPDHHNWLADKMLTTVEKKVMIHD
pIC50: −log10 of the molar value.
# pIC50 per record follows
READOUT: pIC50

# ENTRY_SMILES, NUMERIC_VALUE
records = [
    ("Cc1[nH]c2ccc(Cl)cc2c1C1=CCNCC1", 5.52),
    ("COc1ccc2[nH]c(C)c(C3=CCNCC3)c2c1", 5.01),
    ("CCc1[nH]c2ccc(OC)cc2c1CCN(C)C", 5.82),
]
